- assay.details: Bioanalysis of brain and plasma samples (exposure, UPLC-MS/MS)
- Assay type: in vivo, rat
- test.conditions: male, Sprague Dawley, po; rat plasma, 10 mg/kg p.o., 3 hours post dose; read-out: Exp (ng/g), plasma
assay.metric: concentration at 3 h (ng/g)
Express the result in ng/g but write the number alone.

Some entries whose results are on file:
- structure.as.smiles: "COc1cnc(C(=O)Nc2ccc(F)c([C@]3(C)CC[C@@](F)(CF)C(N)=N3)c2)cn1"
  unit.descriptor: "ng/g"
  endpoint.result: 275
- structure.as.smiles: "C[C@@]1(c2cc(NC(=O)c3ccc(F)cn3)ccc2F)CC[C@@](F)(CF)C(N)=N1"
  unit.descriptor: "ng/g"
  endpoint.result: 469

IN: Reported concentration at 3 h for C[C@@]1(c2cc(NC(=O)c3cnc(C(F)F)cn3)ccc2F)CC[C@@](F)(CF)C(N)=N1 : what is it?
OUT: 195
